# subjectOfTest: T1, apical domain of human CD71 (human, UniProt P02786 189-383, limits assumed)
# T1 construct: domain: apical domain; Screen 4 panned on human apical domains, the ELISA text says only 'apical domain'
# measurementProtocol: primary ELISA; further: test concentration or dose not given here
metric: RLU (RLU)

binder	RLU, RLU
CD71-binding FN3 domain of SEQ ID NO: 530 (designed binder) MLPAPKNLVVSRVTEDSARLSWTAPDAAFDSFFIGYLEPQPPGEAIDLLVPGSERSYDLTGLKPGTEYNVTIQGVKGGFPSEPLFAHFTT	4.48e+06
CD71-binding FN3 domain of SEQ ID NO: 540 (designed binder) MLPAPKNLVVSRVTEDSARLSWTAPDAAFDSFYIAYAEPRPDGEAIILVVPGSERSYDLTGLKPGTEYSVLIHGVKGGLLSSPLDAGFTT	5.85e+06

Where these numbers come from: patent US20260151494A1
